# measurement_protocol: MultiTox-Fluor Cytotoxicity Assay - LYMP1-002 - Dead Cells (AID 960); note: nearly all actives have a fitted effect of over 60% in size
# experimental_setup: LYMP1-002 lymphoblastoid cells, dead-cell protease fluorescence; series mostly up to 46.1 µM
Records with an inconclusive call do not appear. The source made the active and inactive calls. Calls come from the whole dose curve; as a rule, active = well fitted cell-killing curve with a large enough effect; inconclusive = small, poorly fitted or top-dose-only effect, or effect the other way; inactive = no such curve, though single readings can be large or run the other way.
Classes used: True (active), False (inactive)

{"columns": ["smi", "label_class"],
 "data": [
  ["CC(=O)Oc1ccc(C(c2ccc(OC(C)=O)cc2)c2ccccn2)cc1", "False"],
  ["COc1cccc2c1C(=O)c1c(O)c3c(c(O)c1C2=O)C[C@@](O)(C(=O)CO)C[C@@H]3O[C@H]1C[C@H](N)[C@H](O)[C@H](C)O1", "True"],
  ["COc1cccc2c1C(=O)c1c(O)c3c(c(O)c1C2=O)C[C@@](O)(C(C)=O)C[C@@H]3O[C@H]1C[C@H](N)[C@H](O)[C@H](C)O1", "True"],
  ["Oc1c(I)cc(Cl)c2cccnc12", "True"],
  ["Nc1ccc(C(=O)O)cc1", "False"],
  ["CC(=O)O[C@]1(C(C)=O)CC[C@H]2[C@@H]3C[C@H](C)C4=CC(=O)CC[C@]4(C)[C@H]3CC[C@@]21C", "False"],
  ["CN(C)/N=N/c1nc[nH]c1C(N)=O", "False"]
]}

---

# measurement_protocol: Primary qHTS for inhibitors of nuclear receptor binding SET domain protein 2 (NSD2) in an isogenic RCH-ACV NSD2 p.E1099K mutant (9B) (AID 1645876); note: nearly all actives have a fitted effect of over 70% in size
# experimental_setup: RCH-ACV (leukaemia line) NSD2 E1099K (9B) viability, CellTiter-Glo, 72 h; series mostly up to 44.9 µM
Inconclusive results are not listed. Activity calls are given as the source filed them. The call rests on the fitted dose curve; in most records, active means well fitted inhibition curve with a large enough effect; inconclusive means small, poorly fitted or top-dose-only effect; inactive means flat fitted curve, though single readings scatter.
Outcome codes: active, inactive

{"columns": ["compound", "label_class"],
 "data": [
  ["OCc1ccccc1O", "inactive"],
  ["CC(=O)OCC(=O)NCCCOc1cccc(CN2CCCCC2)c1", "inactive"],
  ["CN1CCC(=C2c3ccccc3Sc3ccccc32)CC1", "active"],
  ["CC(=O)Oc1ccc(C(c2ccc(OC(C)=O)cc2)c2ccccn2)cc1", "inactive"],
  ["OC(CCN1CCCCC1)(c1ccccc1)c1ccccc1", "inactive"],
  ["c1ccc(-c2ccc(C(c3ccccc3)n3ccnc3)cc2)cc1 (configuration not stated)", "active"],
  ["Cc1onc(-c2c(Cl)cccc2Cl)c1C(=O)N[C@@H]1C(=O)N2[C@@H]1SC(C)(C)[C@@H]2C(=O)O", "inactive"],
  ["C[C@@H]1CN(CCCn2c3ccccc3c3ccccc32)C[C@H](C)N1", "active"],
  ["CC[C@H](C)C(=O)O[C@H]1CCC=C2C=C[C@H](C)[C@H](CC[C@@H]3C[C@@H](O)CC(=O)O3)[C@H]21", "active"],
  ["O=C(CCN1CCC(c2ccccc2)C1)c1ccc2c(c1)OCCO2 (configuration not stated)", "active"],
  ["CCOc1ccc2nc3cc(N)ccc3c(N)c2c1", "active"],
  ["Cc1cccc(C)c1NC(=O)CN1CCN(CCCC(c2ccc(F)cc2)c2ccc(F)cc2)CC1", "active"],
  ["C[C@H]1[C@H](NC(=O)/C(=N/OC(C)(C)C(=O)O)c2csc(N)n2)C(=O)N1S(=O)(=O)O (stereo in doubt)", "inactive"],
  ["CCCN1CCCC[C@H]1C(=O)Nc1c(C)cccc1C", "inactive"],
  ["COC(=O)CCc1ccc(OCC(O)CNC(C)C)cc1 (configuration not stated)", "inactive"],
  ["CCCCCCCCCCCCCCCC[N+](C)(C)CC", "active"],
  ["CNCCC=C1c2ccccc2CCc2ccccc21", "active"],
  ["Cc1ccccc1C(=O)Nc1ccc(C(=O)N2CCCC(N(C)C)c3ccccc32)cc1 (configuration not stated)", "active"],
  ["CC(O)(P(=O)(O)O)P(=O)(O)O", "inactive"],
  ["NC[C@H]1O[C@H](O[C@H]2[C@H](O)[C@@H](O[C@H]3O[C@H](CO)[C@@H](O)[C@H](N)[C@H]3O)[C@H](N)C[C@@H]2N)[C@H](N)[C@@H](O)[C@@H]1O", "inactive"],
  ["Cc1c(C(C)C)c(=O)n(-c2ccccc2)n1C", "inactive"],
  ["CC(C)=CCC1C(=O)N(c2ccccc2)N(c2ccccc2)C1=O", "active"]
]}
